- TARGET: EGFR L858R (Homo sapiens (Human), UniProt P00533, L858R)
- Sequence (P00533 25-1210 L858R): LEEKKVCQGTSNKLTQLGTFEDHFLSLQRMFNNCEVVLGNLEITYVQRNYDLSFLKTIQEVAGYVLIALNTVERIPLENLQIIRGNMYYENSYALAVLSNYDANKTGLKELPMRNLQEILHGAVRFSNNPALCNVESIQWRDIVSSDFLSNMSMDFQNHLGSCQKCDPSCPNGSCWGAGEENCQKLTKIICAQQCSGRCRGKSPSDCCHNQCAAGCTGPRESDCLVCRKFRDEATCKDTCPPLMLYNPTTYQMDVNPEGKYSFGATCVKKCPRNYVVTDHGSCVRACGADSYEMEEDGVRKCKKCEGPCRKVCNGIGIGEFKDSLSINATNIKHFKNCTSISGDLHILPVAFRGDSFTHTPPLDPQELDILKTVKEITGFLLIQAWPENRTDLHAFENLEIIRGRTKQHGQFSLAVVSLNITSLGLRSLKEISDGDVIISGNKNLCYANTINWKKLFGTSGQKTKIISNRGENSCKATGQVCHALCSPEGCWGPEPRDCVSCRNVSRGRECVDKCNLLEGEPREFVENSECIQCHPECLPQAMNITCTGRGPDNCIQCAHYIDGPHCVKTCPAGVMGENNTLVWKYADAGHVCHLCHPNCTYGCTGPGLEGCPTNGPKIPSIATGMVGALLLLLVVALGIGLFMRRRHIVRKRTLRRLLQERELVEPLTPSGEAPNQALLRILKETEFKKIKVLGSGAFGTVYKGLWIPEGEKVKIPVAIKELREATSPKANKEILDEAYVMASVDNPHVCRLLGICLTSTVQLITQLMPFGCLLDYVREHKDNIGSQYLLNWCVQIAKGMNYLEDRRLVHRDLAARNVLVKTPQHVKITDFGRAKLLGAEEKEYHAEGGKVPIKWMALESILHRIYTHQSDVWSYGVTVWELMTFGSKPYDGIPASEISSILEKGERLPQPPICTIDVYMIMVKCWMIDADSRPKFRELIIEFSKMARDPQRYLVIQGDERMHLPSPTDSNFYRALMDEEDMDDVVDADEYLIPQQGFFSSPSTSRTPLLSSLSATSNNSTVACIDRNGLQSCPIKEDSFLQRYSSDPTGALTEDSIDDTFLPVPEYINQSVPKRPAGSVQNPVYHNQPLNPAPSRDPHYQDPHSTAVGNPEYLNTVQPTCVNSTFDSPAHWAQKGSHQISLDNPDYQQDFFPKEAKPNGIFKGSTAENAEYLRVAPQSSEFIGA
- TEST: Biochemical EGFR inhibition assay, EGFR L858R
- TEST CONTEXT: Caliper mobility shift; 1.0 mM ATP or ATP Km; read-out: Enz EGFR_L858R IC50
pIC50: −log10 of the molar value.
REPORTED PROPERTY: pIC50

>  <COMPOUND>
CCOc1cc2ncnc(-c3cn(C)nc3-c3ccccc3)c2cc1CO

>  <VALUE>
8.70

$$$$
>  <COMPOUND>
COc1cc2ncnc(-c3cn(C)nc3-c3ccccc3)c2cc1C(C)O (centres unmarked)

>  <VALUE>
8.54

$$$$

(a) C[C@@H](O)c1cc2c(-c3cn(CC(F)F)nc3-c3ccccc3)ncnc2cc1-c1cnn(C)c1 (single isomer, unassigned)
(b) COc1cc2ncnc(-c3cn(C)nc3-c3ccccc3)c2cc1OC1CCOCC1
Inquiry: Looking at recorded values for pIC50, does a or b come in lower? // output: label of the selected item
Reply text: b

(A) COc1cc2ncnc(-c3cn(C)nc3-c3ccccc3)c2cc1N1CCOCC1
(B) COc1cc2ncnc(-c3c[nH]nc3-c3ccccc3)c2cc1[C@@H]1CCCCO1 (single isomer, unassigned)
Inquiry: Out of A and B , name the one with the higher pIC50. // output: label of the selected item
Reply text: B
(B: 8.85, A: 7.70)

(I) COc1cc2ncnc(-c3cn(C)nc3-c3ccccc3)c2cc1NC(=O)c1ccccc1N1CCNCC1
(II) COc1cc2ncnc(-c3cn(C)nc3-c3ccccc3)c2cc1NC(=O)C12COCC1C2 (centres unmarked)
Inquiry: Out of I and II , name the one with the higher pIC50. // output: label of the selected item
Reply text: II

* * *

- TARGET: EGFR (d746-750) (Homo sapiens (Human), UniProt P00533, DEL746-750)
- Sequence (P00533 other isoform, or with tags, fused parts or gaps del 1-694/del 746-750 limits assumed): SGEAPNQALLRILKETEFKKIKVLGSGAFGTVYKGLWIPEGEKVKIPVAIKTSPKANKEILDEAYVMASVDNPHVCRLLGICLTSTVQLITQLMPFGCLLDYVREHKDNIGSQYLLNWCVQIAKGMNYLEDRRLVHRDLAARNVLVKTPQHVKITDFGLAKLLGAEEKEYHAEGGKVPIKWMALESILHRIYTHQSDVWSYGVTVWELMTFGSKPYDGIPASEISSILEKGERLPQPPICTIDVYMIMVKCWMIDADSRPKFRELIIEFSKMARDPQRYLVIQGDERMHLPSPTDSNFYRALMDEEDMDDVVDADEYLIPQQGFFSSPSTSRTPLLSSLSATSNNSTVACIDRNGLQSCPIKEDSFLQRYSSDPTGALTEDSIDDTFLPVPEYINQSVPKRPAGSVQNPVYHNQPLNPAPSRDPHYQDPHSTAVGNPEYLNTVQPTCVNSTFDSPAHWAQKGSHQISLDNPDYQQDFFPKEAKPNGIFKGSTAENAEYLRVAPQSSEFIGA
- TEST: Biochemical EGFR inhibition assay, EGFR (d746-750)
- TEST CONTEXT: Caliper mobility shift; 1.0 mM ATP or ATP Km; read-out: Enz EGFR_Exon19-del746-750 IC50
- Experimental: Reactions proceeded until between 10% to 20% total peptides were phosphorylated at room temperature (25° C.) and were terminated with 35 mM 2,2′,2″,2″-(ethane-1,2-diyldinitrilo)tetraacetic acid (EDTA). Product was detected using the Caliper mobility shift detection method where the phosphorylated peptide (product) and substrate were electrophoretically separated and measured. Percent activity was plotted against log concentration of compound and points to generate an apparent IC50.
REPORTED PROPERTY: IC50 (nM)

>  <MOLECULE>
COc1cc2ncnc(-c3cn(C)nc3-c3ccccc3)c2cc1NC(=O)[C@@H]1CCCN1C (single isomer, unassigned)

>  <READING UNIT>
nM

>  <IC50>
2.4

$$$$

(A) COc1cc2ncnc(-c3cn(C)nc3-c3ccccc3)c2cc1OC(=O)N1CCOC[C@H]1C
(B) COc1cc2ncnc(-c3c[nH]nc3-c3ccccc3)c2cc1[C@@H]1CCCCO1 (single isomer, unassigned)
(C) CCOc1cc2ncnc(-c3cn(C)nc3-c3ccccc3)c2cc1OC1CCNCC1
Inquiry: Please list these in order of increasing IC50. Thank you! Use the labels to give the ranking in the order requested.
Reply text: B, A, C
(B: 0.9 nM, A: 2.3 nM, C: 3.4 nM)

* * *

- TARGET: EGFR L858R (Homo sapiens (Human), UniProt P00533, L858R)
- TEST: Biochemical EGFR inhibition assay, EGFR L858R
- TEST CONTEXT: Caliper mobility shift; 1.0 mM ATP or ATP Km; read-out: Enz EGFR_L858R IC50
pIC50: −log10 of the molar value.
REPORTED PROPERTY: pIC50

>  <COMPOUND>
COc1cc2ncnc(-c3cn(C)nc3-c3ccccc3)c2nc1NC(=O)[C@@]12C[C@@H]1CN(C)C2 (single isomer, unassigned) [Example 392]

>  <pIC50>
8.21

$$$$
>  <COMPOUND>
CCOc1cc2ncnc(-c3cn(C)nc3-c3ccccc3)c2nc1NC(=O)[C@]12COC[C@H]1C2 (single isomer, unassigned) [Example 379]

>  <pIC50>
8.60

$$$$
>  <COMPOUND>
CCOc1cc2ncnc(-c3cn(CC(F)F)nc3-c3ccccc3)c2cc1CO [Example 123]

>  <pIC50>
8.80

$$$$
>  <COMPOUND>
COc1cc2ncnc(-c3cn(C)nc3-c3ccccc3)c2nc1O[C@H](C)c1nnc(C)o1 [Example 38]

>  <pIC50>
8.23

$$$$
>  <COMPOUND>
CCOc1cc2ncnc(-c3cn(C)nc3-c3ccccc3)c2nc1NC(=O)[C@@]12C[C@@H]1CN(C)C2 (single isomer, unassigned) [Example 377]

>  <pIC50>
8.66

$$$$

(1) COc1cc2ncnc(-c3cn(C)nc3-c3ccccc3)c2cc1NC(=O)C[C@H]1CCCO1 [Example 280]
(2) COc1cc2ncnc(-c3cn(C)nc3-c3ccccc3F)c2nc1NC(=O)C12CC(N(C)C)(C1)C2 [Example 403]
Inquiry: Looking at recorded values for pIC50, does 1 or 2 come in lower? // output: label of the selected item
Reply text: 2
(2: 8.38, 1: 8.62)

* * *

- TARGET: pEGFR (Tyr1068) in PC-9 cells (Ex19Del) (Homo sapiens (Human), UniProt P00533, DEL746-750)
- Sequence (P00533 other isoform, or with tags, fused parts or gaps del 746-750): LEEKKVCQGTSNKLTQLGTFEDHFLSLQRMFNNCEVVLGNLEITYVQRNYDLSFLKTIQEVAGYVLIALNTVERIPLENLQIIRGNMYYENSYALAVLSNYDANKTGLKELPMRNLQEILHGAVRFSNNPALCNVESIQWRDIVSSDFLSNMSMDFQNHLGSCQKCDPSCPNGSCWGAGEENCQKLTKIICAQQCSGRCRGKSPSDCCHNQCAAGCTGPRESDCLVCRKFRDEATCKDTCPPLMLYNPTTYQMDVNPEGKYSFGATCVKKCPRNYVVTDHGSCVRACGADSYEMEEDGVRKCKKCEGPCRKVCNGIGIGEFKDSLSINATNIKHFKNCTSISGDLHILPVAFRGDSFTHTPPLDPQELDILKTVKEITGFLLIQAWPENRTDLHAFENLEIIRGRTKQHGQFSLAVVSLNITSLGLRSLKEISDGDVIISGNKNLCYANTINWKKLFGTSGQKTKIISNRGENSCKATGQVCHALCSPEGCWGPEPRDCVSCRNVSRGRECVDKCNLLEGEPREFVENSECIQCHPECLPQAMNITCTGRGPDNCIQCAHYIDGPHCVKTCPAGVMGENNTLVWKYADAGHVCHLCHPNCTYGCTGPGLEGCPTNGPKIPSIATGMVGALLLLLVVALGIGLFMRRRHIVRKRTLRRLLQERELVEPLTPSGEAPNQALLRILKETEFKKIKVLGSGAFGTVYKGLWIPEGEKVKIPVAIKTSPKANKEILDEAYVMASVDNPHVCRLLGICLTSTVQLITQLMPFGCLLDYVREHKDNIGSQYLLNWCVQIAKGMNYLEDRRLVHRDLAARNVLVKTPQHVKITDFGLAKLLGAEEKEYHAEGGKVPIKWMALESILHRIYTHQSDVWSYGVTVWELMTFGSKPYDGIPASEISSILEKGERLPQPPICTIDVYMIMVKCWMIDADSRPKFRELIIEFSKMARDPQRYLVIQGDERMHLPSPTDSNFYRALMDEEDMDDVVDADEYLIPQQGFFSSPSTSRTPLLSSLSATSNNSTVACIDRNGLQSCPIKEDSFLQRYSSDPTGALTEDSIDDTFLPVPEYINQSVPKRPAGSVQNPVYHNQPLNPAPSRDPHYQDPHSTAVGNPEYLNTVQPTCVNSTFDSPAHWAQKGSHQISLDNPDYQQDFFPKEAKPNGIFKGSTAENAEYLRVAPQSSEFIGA
- TEST: PC-9 pEGFR AlphaLISA assay
- TEST CONTEXT: 4 hours incubation, p-EGFR (Tyr1068) AlphaLISA, read-out: Ext pEGFR_PC-9 Ex19Del IC50
pIC50: −log10 of the molar value.
REPORTED PROPERTY: pIC50

Recorded pIC50, per entry:
>  <COMPOUND>
CCn1cc(-c2ncnc3cc(OC)c(NC(=O)[C@@]45COC[C@@H]4C5)cc23)c(-c2ccccc2)n1

>  <pIC50>
8.70

$$$$
>  <COMPOUND>
COc1cc2ncnc(-c3cn(CC(F)F)nc3-c3ccccc3)c2nc1OC

>  <pIC50>
9.05

$$$$
>  <COMPOUND>
COc1cc2ncnc(-c3cn(CC(F)F)nc3-c3ccccc3)c2cc1NC(=O)C(F)F

>  <pIC50>
9.05

$$$$

(1) [2H]C([2H])([2H])n1cc(-c2ncnc3cc(OC)c(NC(=O)C4(C(F)(F)F)CC4)nc23)c(-c2ccccc2)n1
(2) COc1cc2ncnc(-c3cn(C)nc3-c3ccccc3)c2cc1NC(=O)c1c(C)cccc1F
(3) COc1cc2ncnc(-c3cn(C)nc3-c3ccccc3)c2cc1NC(=O)[C@H](C)F (single isomer, unassigned)
(4) Cn1cc(-c2ncnc3cc(OC(F)F)c(NC(=O)C4CC4)cc23)c(-c2ccccc2)n1
(5) COc1cc2ncnc(-c3cnn(C(F)(F)F)c3-c3ccccc3)c2cc1NC(=O)C12CC(C1)C2
Inquiry: Please list these compounds in decreasing order of pIC50. Use the labels to give the ranking in the order requested.
Reply text: 1, 3, 2, 4, 5
(1: 8.96, 3: 8.64, 2: 8.42, 4: 8.19, 5: 5.92)

* * *

- TARGET: EGFR L858R (Homo sapiens (Human), UniProt P00533, L858R)
- TEST: Biochemical EGFR inhibition assay, EGFR L858R
- TEST CONTEXT: Caliper mobility shift; 1.0 mM ATP or ATP Km; read-out: Enz EGFR_L858R IC50
pIC50: −log10 of the molar value.
REPORTED PROPERTY: pIC50

>  <COMPOUND>
COc1cc2ncnc(-c3cn(C)nc3-c3ccc(F)cc3)c2nc1NC(=O)[C@@]12CN(C)C[C@@H]1C2(F)F (single isomer, unassigned)

>  <TARGET>
EGFR L858R (Homo sapiens (Human), UniProt P00533, L858R)

>  <pIC50>
8.55

$$$$
>  <COMPOUND>
COc1cc2ncnc(-c3cn(C)nc3-c3ccccc3)c2nc1NC(=O)C1(OC)CC1

>  <TARGET>
EGFR L858R (Homo sapiens (Human), UniProt P00533, L858R)

>  <pIC50>
8.10

$$$$
>  <COMPOUND>
COc1cc2ncnc(-c3cn(C)nc3-c3ccccc3)c2cc1OC(=O)N1CCOC[C@@H]1C

>  <TARGET>
EGFR L858R (Homo sapiens (Human), UniProt P00533, L858R)

>  <pIC50>
8.38

$$$$
>  <COMPOUND>
COc1cc2ncnc(-c3cn(C)nc3-c3ccccc3)c2cc1NC(=O)c1cccc(F)c1Cl

>  <TARGET>
EGFR L858R (Homo sapiens (Human), UniProt P00533, L858R)

>  <pIC50>
8.80

$$$$
>  <COMPOUND>
Cn1cc(-c2ncnc3cc(OC(F)F)c(NC(=O)c4ccc(C5CC5)nc4)nc23)c(-c2ccccc2)n1

>  <TARGET>
EGFR L858R (Homo sapiens (Human), UniProt P00533, L858R)

>  <pIC50>
7.59

$$$$

(a) COc1cc2ncnc(-c3cn(CCO)nc3-c3ccccc3)c2nc1NC(=O)C12CC(C1)C2
(b) CCOc1cc2ncnc(-c3cn(C(C)C)nc3-c3ccccc3)c2cc1[C@@H](C)O (single isomer, unassigned)
Inquiry: Looking at recorded values for pIC50, does a or b come in lower? // output: label of the selected item
Reply text: b

Value source: patent US20250236608A1
